Consider the following compounds; for each one, report its composite z-score.
target: Pro-neuregulin-1, membrane-bound isoform (Homo sapiens); experiment: NRG1 binders on small-molecule microarrays, primary screen, psychiatric disease protein project, biochemical, small-molecule microarray, fluorescence 635/667 (AID 1075); details: NRG1 binding, 635 nm fluorescence, higher = more signal;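 further: score combines 667 nm spot fluorescence with signal to noise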
Respond with the number and no other words.

Which composite z-score is reported for this compound? `O=c1cccc(-c2ccco2)o1` 0.904

Which composite z-score is reported for this compound? `C=C(COC)C(=O)CC[C@H](OC(=O)c1cccnc1)c1ccc(CO)o1` 0.57

Which composite z-score is reported for this compound? O=C1C2C=CC(C(O)c3ccc(I)cc3)N(Nc3ccccc3)C2C(=O)N1c1ccccc1 (stereo not drawn) 2.13

Which composite z-score is reported for this compound? `O=C1[C@@]23C=C(Br)[C@H](C[C@@H]2COC3)[C@@]12CO2` 0.0504

Which composite z-score is reported for this compound? C=CCC(OC(C)=O)[C@@H]1[C@@H](N(Cc2cccc3ccccc23)C(=O)Cc2ccc(F)cc2)c2cc(OCCCO)ccc2N1C(=O)c1ccc(-c2ccccc2)cc1 (stereo partly drawn) -0.61

Which composite z-score is reported for this compound? `COCCOC(=O)N1C(=O)[C@@]2(c3cc(C#CCNC(N)=O)ccc31)[C@H](c1ccc(OCCO)cc1)N1[C@H](c3ccccc3)[C@H](c3ccccc3)OC(=O)[C@H]1[C@@H]2C(=O)NC[C@H](O)c1ccccc1` 0.46

Which composite z-score is reported for this compound? `COCCOC(=O)N1C(=O)[C@@]2(c3cc(C#CC4(O)CCCCCC4)ccc31)[C@H](C(=O)N1CCN(c3ncccn3)CC1)[C@H]1C(=O)O[C@H](c3ccccc3)[C@H](c3ccccc3)N1[C@@H]2c1ccccc1OCCO` 0.239

Which composite z-score is reported for this compound? C=C(C)C1CCC(C(O)C2C=CC3C(=O)N(C)C(=O)C3N2Nc2cc(OC)c(OC)c(OC)c2)CC1 (stereo not drawn) 1.97

###

Consider the following compounds; for each one, report its z-score.
assay: mitochondrial membrane potential change in A549 cells, profiling panel, cell-based, JC-1 fluorescence, basal, 24 h, 100 nL (AID 1138); settings: higher = more signal;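 further: A549 lung adenocarcinoma cells under basal conditions with no added stimulus; test concentration not given here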

Which z-score is reported for this compound? `COc1ccc(NC(=O)O[C@H]2[C@@H]3OC(=O)[C@H](Cc4cccc(Br)c4)C/C=C/C[C@@H](Cc4cccc(Br)c4)C(=O)O[C@H]3[C@@H](OC)O[C@@H]2CO)cc1` 1.69

Which z-score is reported for this compound? COc1ccc(C(O)C2C=CC3C(=O)N(c4ccccc4)C(=O)C3N2Nc2ccc(C(C)C)cc2)c2ccccc12 (stereo not drawn) 0.543

Which z-score is reported for this compound? O=C1C2C=CC(C(O)c3ccco3)N(Nc3ccccc3)C2C(=O)N1c1ccccc1 (stereo not drawn) 1.9

Which z-score is reported for this compound? `Nc1cc(Br)ccc1C(=O)O` 1.28

Which z-score is reported for this compound? CN1C(=O)C2C(C1=O)C1C=C(CCCO)C2C(C2CC2)N1Cc1cc2c(cc1Br)OCO2 (stereo not drawn) -0.401

Which z-score is reported for this compound? COc1cc(NN2C(C(O)c3ccc(I)cc3)C=CC3C(=O)N(c4ccccc4)C(=O)C32)cc(OC)c1OC (stereo not drawn) 0.235

Which z-score is reported for this compound? `CN(C)C(=O)[C@@]1(CCC(=O)OC(C)(C)C)N=C(c2ccc(OCCCO)cc2)O[C@H]1c1ccccc1CN=[N+]=[N-]` 0.123

Which z-score is reported for this compound? `CC(C)CNC(=O)[C@@]1(C)c2ccccc2C(=O)N(Cc2cc(C(F)(F)F)cc(C(F)(F)F)c2)[C@H]1c1ccc(CO)cc1` 0.843
